Each entry below lists one item and its recorded IC50 (pM), ISRE assay value.
# MEASURED ON: IFN-αK (human, UniProt P05013 24-189)
# PROCEDURE SUMMARY: cell-based or functional assay

{"BINDER": "IFWM3332 (antibody, IgG1, V domains shown) VH: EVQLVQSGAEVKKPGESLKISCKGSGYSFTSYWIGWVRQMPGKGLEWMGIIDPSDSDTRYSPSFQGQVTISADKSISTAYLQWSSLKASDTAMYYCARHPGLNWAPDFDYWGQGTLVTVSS VL: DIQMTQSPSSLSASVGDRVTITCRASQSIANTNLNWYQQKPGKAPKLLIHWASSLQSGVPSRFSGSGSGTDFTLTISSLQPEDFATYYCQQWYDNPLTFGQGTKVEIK", "UNITS LABEL": "pM", "IC50 (pM), ISRE assay": 76}
{"BINDER": "IFWM3328 (antibody, IgG1, V domains shown) VH: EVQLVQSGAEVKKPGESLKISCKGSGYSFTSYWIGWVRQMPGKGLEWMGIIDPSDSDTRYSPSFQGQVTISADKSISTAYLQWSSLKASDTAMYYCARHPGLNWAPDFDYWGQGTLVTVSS VL: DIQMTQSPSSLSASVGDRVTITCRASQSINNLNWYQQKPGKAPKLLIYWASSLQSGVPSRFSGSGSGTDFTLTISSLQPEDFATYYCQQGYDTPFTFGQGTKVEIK", "UNITS LABEL": "pM", "IC50 (pM), ISRE assay": 321}
{"BINDER": "IFWM3310 (antibody, IgG1, V domains shown) VH: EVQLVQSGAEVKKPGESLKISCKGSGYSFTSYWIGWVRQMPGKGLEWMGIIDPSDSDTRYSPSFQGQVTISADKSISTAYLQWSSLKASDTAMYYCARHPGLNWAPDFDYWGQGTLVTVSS VL: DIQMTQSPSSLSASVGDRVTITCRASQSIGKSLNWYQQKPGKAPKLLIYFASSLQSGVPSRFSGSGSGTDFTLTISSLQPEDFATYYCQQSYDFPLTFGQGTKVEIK", "UNITS LABEL": "pM", "IC50 (pM), ISRE assay": 96}
{"BINDER": "IFWM3385 (antibody, IgG1, V domains shown) VH: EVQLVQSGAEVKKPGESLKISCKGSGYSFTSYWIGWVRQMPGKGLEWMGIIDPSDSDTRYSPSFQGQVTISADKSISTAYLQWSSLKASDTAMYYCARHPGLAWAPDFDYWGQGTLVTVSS VL: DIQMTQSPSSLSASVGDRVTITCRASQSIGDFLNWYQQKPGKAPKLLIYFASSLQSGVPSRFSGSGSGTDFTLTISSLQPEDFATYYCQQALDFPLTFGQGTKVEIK", "UNITS LABEL": "pM", "IC50 (pM), ISRE assay": 65}
{"BINDER": "IFWM3322 (antibody, IgG1, V domains shown) VH: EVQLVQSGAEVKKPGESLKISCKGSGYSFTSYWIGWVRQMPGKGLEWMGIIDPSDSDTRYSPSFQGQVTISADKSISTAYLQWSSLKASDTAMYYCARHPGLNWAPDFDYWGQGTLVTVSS VL: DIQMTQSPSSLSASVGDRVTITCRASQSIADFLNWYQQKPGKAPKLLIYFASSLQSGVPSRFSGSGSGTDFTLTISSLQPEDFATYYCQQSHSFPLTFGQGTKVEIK", "UNITS LABEL": "pM", "IC50 (pM), ISRE assay": 71}
